System: CP237
Method: qHTS profiling for inhibitors of Plasmodium falciparum proliferation (AID 504749); further: nearly all actives have a fitted effect of over 60% in size
Recorded Conditions: P. falciparum in erythrocytes, SYBR Green DNA, 72 h; series mostly up to 28.7 µM
Results filed as inconclusive are left out. Active and inactive are the calls of the source. The call rests on the fitted dose curve; in most records, active means well fitted inhibition curve with a large enough effect; inconclusive means small, poorly fitted or top-dose-only effect; inactive means flat fitted curve, though single readings scatter.
Can you answer with just one of these options? active, inactive

Examples with answers:
Task: Could you check what this test reported for O=C(Oc1ccccc1C(=O)O)c1ccccc1O ?
Output: inactive

Task: Could you check what this test reported for Oc1cn2c(n1)Nc1ccc(Cl)c(Cl)c1C2 ?
Output: inactive

Continuing:
Task: Could you check what this test reported for CC(=O)c1ccc2c(c1)N(CCCN(C)C)c1ccccc1S2 ?
Output: inactive

Task: Could you check what this test reported for COc1cc(C)c(Cc2cnc(N)nc2N)cc1OC ?
Output: inactive

Task: Could you check what this test reported for CC(=O)Oc1ccc(C2(c3ccc(OC(C)=O)cc3)C(=O)Nc3ccccc32)cc1 ?
Output: inactive

Task: Could you check what this test reported for O=S(=O)(O)c1cc(I)c(O)c2ncccc12 ?
Output: inactive

Task: Could you check what this test reported for CC(C)(C)C(=O)C(Oc1ccc(Cl)cc1)n1ccnc1 (stereo not given) ?
Output: active

Task: Could you check what this test reported for COc1ccc2c(c1)C(=O)N(CCc1ccc(S(=O)(=O)NC(=O)NC3CCCCC3)cc1)C(=O)C2(C)C ?
Output: inactive

Task: Could you check what this test reported for CCN(CC)CCNC(C(=O)OCCC(C)C)c1ccccc1 (stereo not given) ?
Output: active

Task: Could you check what this test reported for O=C(O)CN1C(=O)c2cccc3cccc(c23)C1=O ?
Output: inactive

----------
Method: qHTS of pediatric cancer cell lines to identify multiple opportunities for drug repurposing: Primary screen for OHS-50 cells (AID 1347103); further: nearly all actives have a fitted effect of over 40% in size
Recorded Conditions: OHS-50 osteosarcoma viability, CellTiter-Glo luminescence, 48 h; series mostly up to 57.3 µM
Inconclusive results are not listed. Activity calls are given as the source filed them. Calls follow the shape of the dose curve; as a rule, active = well fitted cell-killing curve with a large enough effect; inconclusive = small, poorly fitted or top-dose-only effect; inactive = no such curve, though single readings can be large or run the other way.
Can you answer with just one of these options? true (1) = active, false (0) = inactive

Task: Could you check what this test reported for NCC(=O)CCC(=O)O ?
Output: false (0)

Could you now look at the following molecule, please?
Task: Could you check what this test reported for O=c1[nH]cnc2c1ncn2[C@@H]1O[C@H](CO)[C@@H](O)[C@H]1O ?
Output: false (0)

----------
Method: qHTS of pediatric cancer cell lines to identify multiple opportunities for drug repurposing: Primary screen for OHS-50 cells (AID 1347103); further: nearly all actives have a fitted effect of over 40% in size; further: potency means the concentration at half of the fitted maximal effect
Recorded Conditions: OHS-50 osteosarcoma viability, CellTiter-Glo luminescence, 48 h; series mostly up to 57.3 µM
Inconclusive results are not listed. The source made the active and inactive calls. The call rests on the fitted dose curve; in most records, active means well fitted cell-killing curve with a large enough effect; inconclusive means small, poorly fitted or top-dose-only effect; inactive means no such curve, though single readings can be large or run the other way.
Measured Metric: Potency

Reference set (5 entries):
Potency recorded for this compound, O=C1N=C(O)CN1/N=C/c1ccc(-c2ccc([N+](=O)[O-])cc2)o1 , is inactive

Potency recorded for this compound, CC(C)(C)NCC(O)COc1ccc(NC(=O)NC2CCCCC2)cc1 (stereo unspecified) , is inactive

Potency recorded for this compound, NS(=O)(=O)c1cc2c(cc1Cl)NC(CSCc1ccccc1)=NS2(=O)=O , is inactive

Potency recorded for this compound, CC/C=C(\C(=O)N[C@@H]1C(=O)N2C(C(=O)OCOC(=O)C(C)(C)C)=C(COC(N)=O)CS[C@H]12)c1csc(N)n1 , is inactive

Potency recorded for this compound, C[C@H](N)[C@H](O)c1cccc(O)c1 , is inactive

Continuing:
Potency recorded for this compound, CSc1ccc2c(c1)N(CCC1CCCCN1C)c1ccccc1S2 (stereo unspecified) , is 17.4 µM (active)

Potency recorded for this compound, CO/N=C(\C(=O)N[C@@H]1C(=O)N2C(C(=O)O)=C(CSc3nc(=O)c(O)nn3C)CS[C@H]12)c1csc(N)n1 , is inactive

Potency recorded for this compound, O=C(O)CN1C(=O)c2cccc3cccc(c23)C1=O , is 0.001 µM (active)

Potency recorded for this compound, CCCCCCCCCCCCCCCC(=O)NCCO , is inactive

Potency recorded for this compound, Cc1ncc([N+](=O)[O-])n1CC(O)CCl (stereo unspecified) , is inactive

Potency recorded for this compound, CN1CCN(C2Cc3ccccc3Sc3ccc(Cl)cc32)CC1 (stereo unspecified) , is 27.6 µM (active)

----------
Tested on: DIV17
Method: qHTS profiling for inhibitors of Plasmodium falciparum proliferation (AID 504749); further: nearly all actives have a fitted effect of over 60% in size
Recorded Conditions: P. falciparum in erythrocytes, SYBR Green DNA, 72 h; series mostly up to 28.7 µM
Procedure: NIH National Institute of Allergy and Infectious Diseases [NIAID] NIH Chemical Genomics Center [NCGC] […] Because mature erythrocytes lack DNA, only Plasmodium-derived DNA is detected. NCGC Assay Protocol Summary: The SYBR Green viability assay was adapted from a method described previously (Plouffe et al., 2008). […] The following morning, fluorescence intensity at 485(14) nm excitation and 535(25) nm emission wavelengths was measured on an EnVision (Perkin Elmer) plate reader. […]
Records with an inconclusive call do not appear. Calls of active or inactive are those of the source. Calls come from the whole dose curve; as a rule, active = well fitted inhibition curve with a large enough effect; inconclusive = small, poorly fitted or top-dose-only effect; inactive = flat fitted curve, though single readings scatter.
Can you answer with just one of these options? yes (1) = active, no (0) = inactive

Examples with answers:
Task: Could you check what this test reported for COc1cc(C)c(Cc2cnc(N)nc2N)cc1OC ?
Output: no (0)

Task: Could you check what this test reported for CCN(CC)CCNC(=O)c1c(C)[nH]c(/C=C2\C(=O)Nc3ccc(F)cc32)c1C ?
Output: yes (1)

Could you now look at the following compound, please?
Task: Could you check what this test reported for CCCCc1ncc(/C=C(\Cc2cccs2)C(=O)O)n1Cc1ccc(C(=O)O)cc1 ?
Output: no (0)

----------
System: W2
Method: qHTS profiling for inhibitors of Plasmodium falciparum proliferation (AID 504749); further: nearly all actives have a fitted effect of over 60% in size
Recorded Conditions: P. falciparum in erythrocytes, SYBR Green DNA, 72 h; series mostly up to 28.7 µM
Results filed as inconclusive are left out. Calls of active or inactive are those of the source. Calls come from the whole dose curve; as a rule, active = well fitted inhibition curve with a large enough effect; inconclusive = small, poorly fitted or top-dose-only effect; inactive = flat fitted curve, though single readings scatter.
Can you answer with just one of these options? TRUE = active, FALSE = inactive

Task: Could you check what this test reported for NC(=O)NC(=O)Cc1ccccc1 ?
Output: FALSE

Task: Could you check what this test reported for CN1CCN(C2Cc3ccccc3Sc3ccc(Cl)cc32)CC1 (stereo not drawn) ?
Output: TRUE

Could you now look at the following compound, please?
Task: Could you check what this test reported for CCCCC(CC)COC(=O)c1ccccc1O (stereo not drawn) ?
Output: FALSE

----------
The reader will find reported max response values listed item by item below.
Method: qHTS Assay for Identifying Gametocytocidal Compounds (AID 743244);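 further: on the % scale 0 is the no-effect control and ±100 the full control effect; actives lower the fluorescent signal which means gametocytes are killed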
Recorded Conditions: P. falciparum 3D7 stage III-V gametocytes, alamarBlue, 72 h; stronger effect = lower value
Records with an inconclusive call do not appear.
Answer format: numeric, % implied, no suffix.

max response recorded for this molecule, CN(C)CCN(Cc1ccccc1)c1ccccn1 , is -8.07

Continuing:
max response recorded for this molecule, Nc1ccc(S(=O)(=O)NC(=O)c2ccccc2)cc1 , is 7.19

max response recorded for this molecule, O=Cc1ccccc1C=O , is -3.58

max response recorded for this molecule, O=C1NC(=O)[C@@]2(CCOc3ccc(F)cc32)N1 , is -2.96

max response recorded for this molecule, CC(=O)OCC(=O)[C@@]1(O)CC[C@H]2[C@@H]3CCC4=CC(=O)CC[C@]4(C)[C@H]3C(=O)C[C@@]21C , is -5.84

max response recorded for this molecule, NCCNCCNCCN , is -8.14

max response recorded for this molecule, Cc1c(Cl)cccc1Nc1ccccc1C(=O)O , is -7.91

max response recorded for this molecule, Cc1ncc(COP(=O)(O)O)c(C=O)c1O , is 5.05

max response recorded for this molecule, CCC(=O)Nc1ccc(O)cc1 , is 7.2

max response recorded for this molecule, NC(CSCC(=O)O)C(=O)O (stereo not given) , is -8.42

max response recorded for this molecule, C[C@@H]1CCN(C(=O)[C@H](CCCN=C(N)N)NS(=O)(=O)c2cccc3c2NC[C@H](C)C3)[C@@H](C(=O)O)C1 , is -0.0233

max response recorded for this molecule, C/C(=C(\CCOP(=O)(O)O)SC(=O)c1ccccc1)N(C=O)Cc1cnc(C)nc1N , is 7.95

----------
System: AS120
Method: qHTS profiling for inhibitors of Plasmodium falciparum proliferation (AID 504749); further: nearly all actives have a fitted effect of over 60% in size
Recorded Conditions: P. falciparum in erythrocytes, SYBR Green DNA, 72 h; series mostly up to 28.7 µM
Results filed as inconclusive are left out. Active and inactive are the calls of the source. Calls come from the whole dose curve; as a rule, active = well fitted inhibition curve with a large enough effect; inconclusive = small, poorly fitted or top-dose-only effect; inactive = flat fitted curve, though single readings scatter.
Can you answer with just one of these options? active, inactive

Examples with answers:
Task: Could you check what this test reported for OCc1cc(C(O)CNCCCCCCOCCCCc2ccccc2)ccc1O (stereo not given) ?
Output: inactive

Task: Could you check what this test reported for NC(=O)NC(=O)Cc1ccccc1 ?
Output: inactive

Task: Could you check what this test reported for CCCn1cnc2c1c(=O)n(CCCCC(C)=O)c(=O)n2C ?
Output: inactive

Task: Could you check what this test reported for C=Cc1c(C)c2cc3[nH]c(cc4nc(cc5nc(cc1[nH]2)C(C)=C5CCC(=O)O)C(CCC(=O)O)=C4C)c(C)c3C=C ?
Output: inactive

Task: Could you check what this test reported for Nc1nc2c(ncn2CCC(CO)CO)c(=O)[nH]1 ?
Output: inactive

Continuing:
Task: Could you check what this test reported for CCC(=O)Nc1ccc(O)cc1 ?
Output: inactive

Task: Could you check what this test reported for Cc1cc2c(cc1S(N)(=O)=O)S(=O)(=O)CCC2 ?
Output: inactive

Task: Could you check what this test reported for CC(C)(C)C(=O)NCCCC(=O)O ?
Output: inactive

Task: Could you check what this test reported for Nc1ccc(S(=O)(=O)NC(=O)c2ccccc2)cc1 ?
Output: inactive

Task: Could you check what this test reported for CCCOC(=O)c1ccccc1 ?
Output: inactive

Task: Could you check what this test reported for CCOc1ccc2ccccc2c1C(=O)N[C@@H]1C(=O)N2[C@@H]1SC(C)(C)[C@@H]2C(=O)O ?
Output: inactive

Task: Could you check what this test reported for CNC(=O)Oc1ccc2c(c1)[C@]1(C)CCN(C)[C@@H]1N2C ?
Output: active

Task: Could you check what this test reported for Cc1cc(O)cc2c1O[C@](C)(CCC[C@H](C)CCC[C@H](C)CCCC(C)C)CC2 ?
Output: inactive

Task: Could you check what this test reported for CCn1cc(C(=O)O)c(=O)c2cnc(N3CCNCC3)nc21 ?
Output: inactive

Task: Could you check what this test reported for CC1(C)OC(=O)NC1=O ?
Output: inactive
